- targetDesc: Sodium-dependent serotonin transporter (Rattus norvegicus)
- Sequence (P31652 whole entry): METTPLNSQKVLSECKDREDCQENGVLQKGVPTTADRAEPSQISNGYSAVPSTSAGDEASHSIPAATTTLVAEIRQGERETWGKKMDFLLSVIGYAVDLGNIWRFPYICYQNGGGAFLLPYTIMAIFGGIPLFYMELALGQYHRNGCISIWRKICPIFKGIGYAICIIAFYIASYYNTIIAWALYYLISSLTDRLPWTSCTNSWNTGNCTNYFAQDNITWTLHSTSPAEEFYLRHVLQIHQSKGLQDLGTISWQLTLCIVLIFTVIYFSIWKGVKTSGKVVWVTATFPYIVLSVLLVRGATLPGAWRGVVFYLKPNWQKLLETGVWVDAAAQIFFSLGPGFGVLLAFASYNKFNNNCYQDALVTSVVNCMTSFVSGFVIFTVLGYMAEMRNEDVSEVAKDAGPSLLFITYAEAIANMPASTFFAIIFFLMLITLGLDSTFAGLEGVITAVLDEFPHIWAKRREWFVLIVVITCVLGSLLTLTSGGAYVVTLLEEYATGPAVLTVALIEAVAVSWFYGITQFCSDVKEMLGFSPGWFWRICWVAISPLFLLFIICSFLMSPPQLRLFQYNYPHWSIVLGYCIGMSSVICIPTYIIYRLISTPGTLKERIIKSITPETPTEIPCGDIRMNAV
quantity: IC50 (nM)
Output spec: scalar in nM, unitless text.

Query: Requested read-out: IC50. Entry: Cc1ccc2c(c1)c(-c1ccnc3c(C)cccc13)c(C)n2CC(=O)O
Response: 2000

* * *

hepatocyte CLint overview
- testProtocol: Intrinsic clearance in human hepatocytes per 10^6 cells
Remember to quote the unit after the number.

Query: Requested read-out: hepatocyte CLint. Entry: Cc1ccc2c(c1)c(-c1ccnc3c(C)cccc13)c(C)n2CC(=O)O
Response: 1.9 µL/min/1e6 cells

Query: Requested read-out: hepatocyte CLint. Entry: Cc1ccc2c(c1)c(-c1ccnc3c(Cl)cccc13)c(C)n2CC(=O)O
Response: 2 µL/min/1e6 cells

Query: Requested read-out: hepatocyte CLint. Entry: Cc1ccc2c(c1)c(-c1ccnc3c(F)cccc13)c(C)n2CC(=O)O
Response: 1.6 µL/min/1e6 cells

Query: Requested read-out: hepatocyte CLint. Entry: COc1ccc2c(c1)c(CC(=O)O)c(C)n2-c1ccnc2cc(Cl)ccc12
Response: 1.4 µL/min/1e6 cells

Query: Requested read-out: hepatocyte CLint. Entry: Cc1ccc2c(c1)c(-c1ccnc3ccccc13)c(C)n2CC(=O)O
Response: 3 µL/min/1e6 cells

Continuing:
Query: Requested read-out: hepatocyte CLint. Entry: Cc1ccc2c(c1)c(-c1ccnc3cc(Cl)ccc13)c(C)n2CC(=O)O
Response: 3.8 µL/min/1e6 cells

* * *

- testProtocol: physchem
- experimentalSetup: buffer, pH 7.4
- Description: Lipophilicity, LogD at pH 7.4
logD overview
Give a plain numeric answer without units written out.

Query: Requested read-out: logD. Entry: Cc1ccc2c(c1)c(-c1ccnc3cc(C(F)(F)F)ccc13)c(C)n2CC(=O)O
Response: 1.8

Query: Requested read-out: logD. Entry: Cc1ccc2c(c1)c(-c1ccnc3cc(Cl)ccc13)c(C)n2CC(=O)O
Response: 1.6

Query: Requested read-out: logD. Entry: Cc1ccc2c(c1)c(-c1ccnc3c(S(C)(=O)=O)cccc13)c(C)n2CC(=O)O
Response: 0.3

Query: Requested read-out: logD. Entry: COc1cccc2c(-c3c(C)n(CC(=O)O)c4ccc(C)cc34)ccnc12
Response: 0.5

Query: Requested read-out: logD. Entry: Cc1ccc2c(c1)c(-c1ccnc3c(F)cccc13)c(C)n2CC(=O)O
Response: 0.5

Query: Requested read-out: logD. Entry: Cc1ccc2c(c1)c(-c1ccnc3c(C(F)(F)F)cccc13)c(C)n2CC(=O)O
Response: 1.3

Query: Requested read-out: logD. Entry: COc1ccc2c(c1)c(CC(=O)O)c(C)n2-c1ccnc2cc(Cl)ccc12
Response: 1.7

Query: Requested read-out: logD. Entry: Cc1ccc2c(c1)c(-c1ccnc3ccc(C(F)(F)F)cc13)c(C)n2CC(=O)O
Response: 1.8

Continuing:
Query: Requested read-out: logD. Entry: Cc1ccc2c(c1)c(-c1ccnc3c(Cl)cccc13)c(C)n2CC(=O)O
Response: 1.3

Query: Requested read-out: logD. Entry: Cc1ccc2c(c1)c(-c1cc(C)nc3ccccc13)c(C)n2CC(=O)O
Response: 2.9

* * *

- Species: Homo sapiens
- testProtocol: Protein binding in human plasma
- experimentalSetup: read-out: PPB (converted)
fraction unbound overview
Give a plain numeric answer without units written out.

Query: Requested read-out: fraction unbound. Entry: Cc1ccc2c(c1)c(-c1ccnc3c(F)cccc13)c(C)n2CC(=O)O
Response: 0.009

Query: Requested read-out: fraction unbound. Entry: Cc1ccc2c(c1)c(-c1cc(C)nc3ccccc13)c(C)n2CC(=O)O
Response: 0.004

Query: Requested read-out: fraction unbound. Entry: Cc1ccc2c(c1)c(-c1ccnc3cc(Cl)ccc13)c(C)n2CC(=O)O
Response: 0.002

Query: Requested read-out: fraction unbound. Entry: COc1ccc2c(c1)c(-c1ccnc3cc(Cl)ccc13)c(C)n2CC(=O)O
Response: 0.003

Query: Requested read-out: fraction unbound. Entry: Cc1ccc2c(c1)c(-c1ccnc3c(S(C)(=O)=O)cccc13)c(C)n2CC(=O)O
Response: 0.064

Continuing:
Query: Requested read-out: fraction unbound. Entry: Cc1ccc2c(c1)c(-c1ccnc3cc(C(F)(F)F)ccc13)c(C)n2CC(=O)O
Response: 0.004

Query: Requested read-out: fraction unbound. Entry: Cc1ccc2c(c1)c(-c1ccnc3c(Cl)cccc13)c(C)n2CC(=O)O
Response: 0.006

Query: Requested read-out: fraction unbound. Entry: Cc1ccc2c(c1)c(-c1ccnc3c(C(F)(F)F)cccc13)c(C)n2CC(=O)O
Response: 0.004

* * *

- testProtocol: Clearance in dog
- Assay type: ADME, organism-based, Canis lupus familiaris
- experimentalSetup: in vivo
quantity: clearance (mL/min/kg)
Output spec: scalar in mL/min/kg, unitless text.

Query: Requested read-out: clearance. Entry: Cc1ccc2c(c1)c(-c1ccnc3c(C)cccc13)c(C)n2CC(=O)O
Response: 1

* * *

clearance overview
- testProtocol: Clearance in rat
- Type: ADME, organism-based
- experimentalSetup: in vivo
Output spec: scalar in mL/min/kg, unitless text.

Query: Requested read-out: clearance. Entry: Cc1ccc2c(c1)c(-c1ccnc3cc(Cl)ccc13)c(C)n2CC(=O)O
Response: 6

Continuing:
Query: Requested read-out: clearance. Entry: COc1ccc2c(c1)c(CC(=O)O)c(C)n2-c1ccnc2cc(Cl)ccc12
Response: 11

* * *

- testProtocol: Volume of distribution in rat
- Format: ADME, organism-based
- experimentalSetup: in vivo, read-out: Vss
Vd overview
Output spec: scalar in L/kg, unitless text.

Query: Requested read-out: Vd. Entry: Cc1ccc2c(c1)c(-c1ccnc3cc(Cl)ccc13)c(C)n2CC(=O)O
Response: 1.4

Attention now shifts to the item below.
Query: Requested read-out: Vd. Entry: COc1ccc2c(c1)c(CC(=O)O)c(C)n2-c1ccnc2cc(Cl)ccc12
Response: 2.3

* * *

- targetDesc: Cytochrome P450 2C19 (Homo sapiens)
- Sequence (P33261 whole entry): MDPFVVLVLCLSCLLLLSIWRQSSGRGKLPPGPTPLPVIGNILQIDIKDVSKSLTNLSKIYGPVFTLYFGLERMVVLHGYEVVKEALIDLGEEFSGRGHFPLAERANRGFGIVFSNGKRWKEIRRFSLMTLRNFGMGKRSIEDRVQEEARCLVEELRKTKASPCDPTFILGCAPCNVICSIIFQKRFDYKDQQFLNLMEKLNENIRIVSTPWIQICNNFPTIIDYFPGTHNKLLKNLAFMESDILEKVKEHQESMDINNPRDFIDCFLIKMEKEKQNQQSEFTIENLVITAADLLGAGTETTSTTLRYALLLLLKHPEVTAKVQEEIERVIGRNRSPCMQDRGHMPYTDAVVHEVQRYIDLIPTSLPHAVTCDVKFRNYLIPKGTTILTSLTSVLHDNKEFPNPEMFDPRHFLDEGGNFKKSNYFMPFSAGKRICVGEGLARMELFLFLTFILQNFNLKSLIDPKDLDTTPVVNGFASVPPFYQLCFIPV
- testProtocol: Inhibition at recombinant human CYP2C19
pIC50 overview
Units for pIC50: none; it is -log10 of a concentration expressed in mol/L.

Query: Requested read-out: pIC50. Entry: Cc1ccc2c(c1)c(-c1ccnc3c(C)cccc13)c(C)n2CC(=O)O
Response: 5.60

Continuing:
Query: Requested read-out: pIC50. Entry: COc1ccc2c(c1)c(CC(=O)O)c(C)n2-c1ccnc2cc(Cl)ccc12
Response: 5.80

* * *

hepatocyte CLint overview
- testProtocol: Intrinsic clearance in rat hepatocytes per 10^6 cells
Output spec: scalar in µL/min/1e6 cells, unitless text.

Known hepatocyte CLint results, listed for orientation:
Query: Requested read-out: hepatocyte CLint. Entry: Cc1ccc2c(c1)c(-c1ccnc3ccccc13)c(C)n2CC(=O)O
Response: 10.7

Query: Requested read-out: hepatocyte CLint. Entry: Cc1ccc2c(c1)c(-c1ccnc3c(C)cccc13)c(C)n2CC(=O)O
Response: 5.5

Query: Requested read-out: hepatocyte CLint. Entry: COc1ccc2c(c1)c(CC(=O)O)c(C)n2-c1ccnc2cc(Cl)ccc12
Response: 6.5

Continuing:
Query: Requested read-out: hepatocyte CLint. Entry: Cc1ccc2c(c1)c(-c1ccnc3ccc(C(F)(F)F)cc13)c(C)n2CC(=O)O
Response: 16

* * *

- testProtocol: Intrinsic clearance in rat hepatocytes per 10^6 cells
quantity: hepatocyte CLint (µL/min/1e6 cells)
Output spec: scalar in µL/min/1e6 cells, unitless text.

Known hepatocyte CLint results, listed for orientation:
Query: Requested read-out: hepatocyte CLint. Entry: Cc1ccc2c(c1)c(-c1cc(C)nc3ccccc13)c(C)n2CC(=O)O
Response: 5

Query: Requested read-out: hepatocyte CLint. Entry: COc1ccc2c(c1)c(-c1ccnc3cc(Cl)ccc13)c(C)n2CC(=O)O
Response: 5

Query: Requested read-out: hepatocyte CLint. Entry: Cc1ccc2c(c1)c(-c1ccnc3cc(Cl)ccc13)c(C)n2CC(=O)O
Response: 6

Attention now shifts to the item below.
Query: Requested read-out: hepatocyte CLint. Entry: COc1cccc2c(-c3c(C)n(CC(=O)O)c4ccc(C)cc34)ccnc12
Response: 7

* * *

- testProtocol: Half life in rat
- Format: ADME, organism-based
- experimentalSetup: in vivo
quantity: half-life (h)
Output spec: scalar in h, unitless text.

Query: Requested read-out: half-life. Entry: COc1ccc2c(c1)c(CC(=O)O)c(C)n2-c1ccnc2cc(Cl)ccc12
Response: 2.2

Continuing:
Query: Requested read-out: half-life. Entry: Cc1ccc2c(c1)c(-c1ccnc3cc(Cl)ccc13)c(C)n2CC(=O)O
Response: 6.7

* * *

- targetDesc: Prostaglandin D2 receptor 2 (Homo sapiens, UniProt Q9Y5Y4)
- Sequence (Q9Y5Y4 whole entry): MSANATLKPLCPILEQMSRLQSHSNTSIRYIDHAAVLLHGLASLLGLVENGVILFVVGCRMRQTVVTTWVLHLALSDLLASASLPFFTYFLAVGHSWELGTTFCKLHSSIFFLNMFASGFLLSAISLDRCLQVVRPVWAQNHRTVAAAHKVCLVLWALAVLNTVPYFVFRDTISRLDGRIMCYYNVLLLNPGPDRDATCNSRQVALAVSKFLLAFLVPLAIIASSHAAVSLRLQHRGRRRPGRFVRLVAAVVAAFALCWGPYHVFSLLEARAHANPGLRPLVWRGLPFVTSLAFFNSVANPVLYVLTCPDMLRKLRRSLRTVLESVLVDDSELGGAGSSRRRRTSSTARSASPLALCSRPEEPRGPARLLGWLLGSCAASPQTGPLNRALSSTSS
- testProtocol: Displacement of [3H]PGD2 from human CRTh2 expressed in HEK293 cells
quantity: pIC50
Units for pIC50: none; it is -log10 of a concentration expressed in mol/L.

Known pIC50 results, listed for orientation:
Query: Requested read-out: pIC50. Entry: COc1cccc2c(-c3c(C)n(CC(=O)O)c4ccc(C)cc34)ccnc12
Response: 7.96

Query: Requested read-out: pIC50. Entry: Cc1ccc2c(c1)c(-c1ccnc3cc(Cl)ccc13)c(C)n2CC(=O)O
Response: 8.10

Query: Requested read-out: pIC50. Entry: Cc1ccc2c(-c3ccnc4cc(Cl)ccc34)c(C)n(CC(=O)O)c2c1
Response: 6.90

Query: Requested read-out: pIC50. Entry: COc1ccc2c(c1)c(-c1ccnc3cc(Cl)ccc13)c(C)n2CC(=O)O
Response: 7.30

Query: Requested read-out: pIC50. Entry: Cc1ccc2c(c1)c(-c1ccnc3c(Cl)cccc13)c(C)n2CC(=O)O
Response: 8.64

Continuing:
Query: Requested read-out: pIC50. Entry: Cc1ccc2c(c1)c(-c1ccnc3c(C)cccc13)c(C)n2CC(=O)O
Response: 8.59

Query: Requested read-out: pIC50. Entry: Cc1ccc2c(c1)c(-c1ccnc3c(F)cccc13)c(C)n2CC(=O)O
Response: 8.15

Query: Requested read-out: pIC50. Entry: Cc1ccc2c(c1)c(-c1ccnc3c(S(C)(=O)=O)cccc13)c(C)n2CC(=O)O
Response: 7.64
